metricName: melting point

A selection of reference data follows.
C#CC1(Oc2ccccc2[N+](=O)[O-])CCN(C(C)=O)CC1 112 to 115 °C
Nc1nc(N)nc(-c2cnc3ccccc3c2)n1 > 250 °C
CCOC(=O)c1cnc2c(F)c(F)c(F)cc2c1Cl 110 to 112 °C

-- ask Which measured melting point value corresponds to CCC(=O)Nc1nnc(S)s1 ?
-- reply 234 to 237 °C

-- ask What value of measured melting point is listed for CC1(C)CC(=O)C(C)(C)c2cc(/C=C/c3ccc(C(=O)O)cc3)c(Cn3cccn3)cc21 ?
-- reply 265 to 266 °C

-- ask Quick check: melting point of COC(=O)C(O)=CC(=O)c1cn(Cc2ccccc2)c(=O)n(Cc2ccccc2)c1=O ?
-- reply 158 to 159 °C

====

metricName: melting point

compound	endpointValue
O=C(CCNC(=O)OCc1ccccc1)NCCSC(=O)OCc1ccccc1	121 to 122 °C
Cc1ccccc1-c1nc(COc2cccc3cc(NS(=O)(=O)C(F)(F)F)ccc23)co1	127 to 130 °C
Cc1cccc(NC(=O)NCC(=O)N2[C@@H](C(=O)N(C)c3ccccc3)CC[C@H]2c2ccccc2)c1 (racemic)	210 °C
CCSc1ccc([N+](=O)[O-])c(N)c1	75 to 76 °C
CS/C=C(/C)n1c(=O)n(C)c2cc(F)ccc21	110 °C

-- ask Item under review: CCCn1c(=O)n2cnnc2c2c1ncn2C . Reported melting point?
-- reply 218 °C

-- ask Which melting point reading was recorded for the compound COc1cccc(-c2nn(Cc3ccccc3)c3ncnc(O)c23)c1 ?
-- reply 183 to 185 °C

-- ask Fill in: melting point of COC(=O)CCCc1cc2nc(Cl)ccc2n1S(=O)(=O)c1cccc(-c2cncs2)c1 is ___
-- reply 147 to 148 °C

-- ask Consider the compound COC(=O)C1(CC(N)=O)C(=O)N(Cc2ccc(Br)cc2F)C(=O)c2ccccc21 (stereo not drawn) and give its measured melting point.
-- reply 180 to 182 °C

-- ask melting point for Cc1c(NC(=O)c2ccc(-c3ccc(F)cc3)cc2)ccc2cc(C(C)O)cnc12 (stereo not drawn) ?
-- reply 189 to 192 °C

-- ask Suppose we examine the compound CC(C)Oc1ccc(-c2cncc(OC3SCC(O)C(O)C3O)c2)cc1 (stereo not drawn) ; what melting point value has been reported?
-- reply 158 °C

-- ask melting point lookup needed for OC(c1ccccc1)c1ccc2cccnc2c1 (stereo not drawn) , thanks.
-- reply 118 °C

-- ask Could you tell me which melting point is on file for C[C@H](NC(=O)c1c[nH]c2ncc(-c3ccc(C(F)(F)F)cc3)nc12)C(C)(C)C ?
-- reply > 300 °C

-- ask Quick one: melting point of COc1ccc(NC(=O)CN2CCC(Cc3ccc(F)cc3)CC2)cc1 ?
-- reply 121 to 124 °C

====

melting point for assorted compounds

compound	endpointValue
CN1CC(CNC(=N)NC(=O)c2ccccc2)CC2c3cccc4[nH]cc(c34)CC21 (centres undefined)	190 to 191 °C
CCCCc1nc2cccc(C(=O)OCOC(=O)C(C)(C)C)c2n1Cc1ccc2nc(-c3ccccc3-c3nnn[nH]3)ncc2c1	126 to 128 °C
O=[N+]([O-])c1cccc2c(Cl)ccnc12	144 to 146 °C
CCCCNC(=O)Nc1ccc(N(C)C)cc1C(=O)NCC1CCN(C(c2ccccc2)c2ccccc2)CC1	201 to 203 °C
CCNC=C(C(=O)C=Cc1ccc(N(C)C)cc1)C(=O)OC	129 to 130 °C
N#Cc1ccc(C=O)c(-c2ccccc2)c1	75 °C
Cc1cccc(C)c1NC(=O)CN1CCN(CCC(c2ccc(F)cc2)c2ccc(F)cc2)C(C(N)=O)C1 (centres undefined)	143 °C
O=[N+]([O-])c1ccc(O)c(CNCCC(F)=C(F)F)c1	96 to 98 °C

Please examine the following record next.
-- ask Record request: melting point value, item CC1=C(CN(C)C(=O)N2CCN(C(N)=O)CC2)C(C)(C)CCC1
-- reply 140 °C
